Data credit: ChEMBL document CHEMBL1201862

- Tested on: U-251
- testProtocol: NCI tumour cell line growth inhibition, 48 h
Activity calls are given as the source filed them. Cut-off read from the data, not from the text of the source: active = GI50 up to about 1.1 µM and inactive = higher.
Please reply with one of these outcomes: active, inactive

Prompt: // param item: CC(Oc1ccc(OCC2CCCCC2)cc1)C(=O)O (stereo not given) ; yields the recorded call
Response: inactive

Prompt: What did this assay record as the result for CC(C)(C)NC(=S)N/N=C/c1ccccn1 ?
Response: active

Prompt: Would you mind telling me which call this test gave CC(=O)OC1CCC2C(=CCC3C2(C)C(=O)CC2(C)C(C4(C)OC(C(C)C)=CC4=O)C(O)CC32C)C1(C)C (stereo not given) ?
Response: inactive

Prompt: # lookup: test call for CC(C)OC(=O)NNc1cccc(Cl)c1
Response: inactive

Prompt: For CCOC(=O)[C@@H]1ON2O[C@@H](OC3CCCC3(c3ccccc3)c3ccccc3)C[C@H]3OC(=O)[C@@H]1C32 (stereo not given in full) , which call appears in the assay record?
Response: inactive

Prompt: Returns: the outcome recorded for Nc1cc(CO)cc(Nc2c3ccccc3nc3ccccc23)c1 in this assay.
Response: inactive

Prompt: How was COc1ccc(C2c3c(-c4ccccc4)nn(-c4ccccc4)c3Oc3ncn(N)c(=N)c32)cc1OC (stereo not given) classified in this test?
Response: inactive

Prompt: Hello, I am checking results. What call was entered for CC(O)C(NC(=O)c1ccccc1)C(=O)N(Cc1ccccc1)Cc1ccccc1 (stereo not given) ?
Response: inactive

Prompt: For CC12CC3(C)CC(C)(C1)CC(N=[N+]=[N-])(C2)C3 , which call appears in the assay record?
Response: inactive

Prompt: Returns: the outcome recorded for N#C/N=C(/NCc1ccccc1)N(Cc1ccccc1)Cc1ccccc1 in this assay.
Response: inactive

Prompt: Fill in: this test's call for CNc1nnc(CNc2ccc(-c3nnc(NC)n3N)cc2)n1N is ___
Response: inactive

Prompt: Please let me know the test result on file for CC(C(=O)NCNC(=O)c1ccccc1)C(=O)NCc1ccccc1 (stereo not given) .
Response: inactive

Prompt: Lab log entry: COc1ccc(CC/N=C2\CCC(C(=O)NCCc3ccc(OC)c(OC)c3)N2)cc1OC (stereo not given) — outcome as called in the assay?
Response: inactive

Prompt: Just curious, what result did C[S+]([O-])c1cc(=O)c2ccccc2s1 (stereo not given) get here?
Response: inactive

Prompt: Given COc1cccc(C(=O)C(O)c2cccc(OC)c2OC)c1OC (stereo not given) , state the outcome it received in this test.
Response: inactive

Prompt: Lab log entry: COc1c2c(cc3occ(-c4ccc(CC=C(C)C)cc4)c(=O)c13)OC(C)(C)C=C2 — outcome as called in the assay?
Response: inactive

Prompt: How did this test come out for CCOC(=O)Cc1nc(/C(C#N)=C/c2ccco2)[nH]c(=O)c1C#N ?
Response: inactive

Prompt: Called result for C#C[C@]1(O)CC[C@H]2[C@@H]3CCC4=C/C(=N\OCCN5CCCC5)CC[C@]4(C)[C@H]3CC[C@@]21C
Response: inactive

Prompt: Call for entry Nc1nc(F)nc2c1ncn2C1OC(CO)C(O)C1O (stereo not given) :
Response: inactive

Prompt: Please share the test call associated with CCN(CC)N1C(=O)[N-][N+](CC)(CC)C1=O .
Response: inactive

Prompt: For this molecule, state the assay outcome: Oc1nc(-c2ccccc2)cc(-c2ccccc2O)n1
Response: inactive

Prompt: Just curious, what result did CN1C(=O)C(O)CC1c1ccccc1C(F)(F)F (stereo not given) get here?
Response: inactive

Prompt: For Cc1cc(=O)oc2cc(OC(=O)N(C)C)c(Cl)cc12 , which call appears in the assay record?
Response: inactive

Prompt: Could you please tell me the result logged for c1ccc2c(c1)[n-]n1c3ccc4nonc4c3n[n+]21 in this assay?
Response: inactive

Prompt: Assay outcome for NC(=O)COc1c(Br)cc(Br)cc1Br : what was it?
Response: inactive

Prompt: Which result was noted for this molecule in the test: COc1cccc2cc(C(N)=O)c(=N)oc12
Response: inactive

Prompt: Hi, do you know how C#CCn1c(=O)c(I)cn(/C(=C\C(=O)OCC)C(=O)OCC)c1=O came out in this test?
Response: inactive

Prompt: # outcome recorded in this test, key = Cc1c(Cl)cccc1NC(=O)C(=O)c1c(O)c2ccc(O)cc2oc1=O
Response: inactive

Prompt: Please indicate how the test categorized Cc1ccc([S+]([O-])/C=C(\NC(=O)OCc2ccccc2)C(F)(F)F)cc1 (stereo not given) .
Response: inactive

Prompt: Please state the recorded outcome for this molecule: COc1ccc2[nH]c3c(c2c1)CCn1c-3nc2ccccc2c1=O
Response: inactive

Prompt: What was the test verdict on CC(C)C(OC(=O)c1ccc(NCc2cc(O)ccc2O)cc1)C(C)C ?
Response: inactive

Prompt: Any idea what this test logged for Cc1cc(S(=O)(=O)Nc2nc(N)nc(N(C)C)n2)c(SC(C(=O)O)c2ccccc2)cc1Cl (stereo not given) ?
Response: inactive

Prompt: Entry CN(C)CCOc1ccc(-c2c(Oc3ccccc3)c(=O)oc3ccccc23)cc1 : call = ?
Response: inactive

Prompt: Lab log entry: CCCO[C@@H]1[C@@H](OC(C)=O)[C@@H](OC(C)=O)C(C)(C)/C=C/[C@H](C)C(=O)[C@@]2(OC(C)=O)C[C@@](C)(OC(C)=O)[C@H](OC(C)=O)[C@@H]2[C@H]2OC(=O)CC[C@@]12OC(=O)c1ccccc1 — outcome as called in the assay?
Response: inactive

Prompt: For Cc1cc(C)nc(NS(=O)(=O)c2ccc(Nc3c4ccccc4nc4c(C(=O)Nc5ccc(S(N)(=O)=O)cc5)cccc34)cc2)n1 , which call appears in the assay record?
Response: inactive

Prompt: Call for entry CC(=O)OCC1=C(COC(C)=O)C(=O)c2c(O)ccc(O)c2C1=O :
Response: inactive

Prompt: # outcome recorded in this test, key = C=C1CC(c2ccc(OCCCN3C(=O)c4ccccc4C3=O)c(OC)c2)OC1=O (stereo not given)
Response: inactive

Prompt: I'd appreciate the recorded outcome for CCCCCCCCCC(=O)N[C@@H](c1ccco1)[C@@H](O)C(=O)O[C@H]1C[C@@]2(O)[C@@H](OC(=O)c3ccccc3)[C@@H]3[C@]4(OC(C)=O)CO[C@@H]4C[C@H](O)[C@@]3(C)C(=O)[C@H](OC(C)=O)C(=C1C)C2(C)C from this test.
Response: active

Prompt: For COc1cc2ncnc(Nc3cccc(Br)c3)c2cc1OC , which call appears in the assay record?
Response: inactive

Prompt: Check the results log: what was the call for CN(C)CC1CCCc2ccccc2C1=O (stereo not given) ?
Response: inactive
